Target: Histone deacetylase (HDAC1 and HDAC2) (Homo sapiens, UniProt Q13547+Q92769)
Assay: Inhibition of HDAC1/2 in human HeLa cell nuclear extract using COLOR DE LYS as substrate pretreated for 5 mins followed by substrate addition measured after 30 mins by UV-absorption method
Format: cell-based
outcome measure: IC50 (nM)

smiles string	units	IC50
O=C(NO)c1ccc(CN(Cc2ccccc2)Cc2ccc3ccccc3n2)cc1	nM	836
COc1cccc2ccc(CN(C(=O)c3ccc(/C=C/C(=O)NO)cc3)c3ccccc3)nc12	nM	724
O=C(/C=C/c1cccc(CNCc2ccc3cc(Br)ccc3n2)c1)NO	nM	559
COc1ccc(N(Cc2ccc3ccccc3n2)C(=O)c2ccc(/C=C/C(=O)NO)cc2)cc1	nM	744

====

Listed below: IC50 values for each entry.
Tested on: HEL
Assay: Antiproliferative activity against human HEL cells after 48 hrs by MTT assay
Type: functional, cell-based
Give the number; nM is assumed, so skip it.

smiles string	units	IC50
O=C(/C=C/c1ccc(CNCc2ccc3ccccc3n2)cc1)NO	nM	150
O=C(/C=C/c1ccc(CNCc2ccc3cccc(Cl)c3n2)cc1)NO	nM	110
COc1cccc2ccc(CNCc3ccc(/C=C/C(=O)NO)cc3)nc12	nM	220
O=C(/C=C/c1ccc(CNCc2ccc3cc(Cl)ccc3n2)cc1)NO	nM	220

Now consider a different molecule.
HEL assay, molecule COc1ccc2nc(CNCc3ccc(/C=C/C(=O)NO)cc3)ccc2c1 , recorded IC50 = 130

====

Molecular target: Histone deacetylase (HDAC1 and HDAC2) (Homo sapiens, UniProt Q13547+Q92769)
Experiment: Inhibition of HDAC1/2 in human HeLa cell nuclear extract using COLOR DE LYS as substrate pretreated for 5 mins followed by substrate addition measured after 30 mins by UV-absorption method
Assay type: cell-based
outcome measure: IC50 (nM)

Below: 3 compounds and their reported IC50.
smiles string	assay value
COc1ccc2nc(CN(C(=O)Cc3ccc(/C=C/C(=O)NO)cc3)c3ccccc3)ccc2c1	560
COc1ccc2nc(CNCc3ccc(/C=C/C(=O)NO)cc3)ccc2c1	236
O=C(/C=C/c1ccc(CNCc2ccc3cc(Cl)ccc3n2)cc1)NO	305

P. COc1cccc2ccc(CNCc3ccc(/C=C/C(=O)NO)cc3)nc12
Q. O=C(/C=C/c1ccc(CNCc2ccc3cc(Br)ccc3n2)cc1)NO
R. O=C(/C=C/c1ccc(CNCc2ccc3ccccc3n2)cc1)NO
Write the entries in order, lowest recorded IC50 first. Returns: the labels listed in the requested order. R, P, Q
(R: 138 nM, P: 206 nM, Q: 375 nM)

I. O=C(/C=C/c1ccc(CNCc2ccc3cccc(Cl)c3n2)cc1)NO
II. O=C(/C=C/c1ccc(CC(=O)N(Cc2ccc3ccccc3n2)c2ccccc2)cc1)NO
Hi there! Just curious which has the higher IC50 between I and II . Indicate which entry you chose by stating its label. II
(II: 720 nM, I: 275 nM)

====

Assay: Inhibition of Class 1 histone deacetylase in human K562 cells using Boc-Lys (acetyl)-AMC as substrate preincubated with compound for 3 hrs followed by substrate addition measured after 3 hrs by fluorometric analysis
Type: cell-based
pIC50: −log10 of the molar value.
outcome measure: pIC50

P. O=C(/C=C/c1ccc(CNCc2ccc3ccccc3n2)cc1)NO
Q. O=C(/C=C/c1ccc(CNCc2ccc3cccc(Cl)c3n2)cc1)NO
Hi there! Just curious which has the higher pIC50 between P and Q . Indicate which entry you chose by stating its label. Q

====

Molecular target: Protein deacetylase HDAC6 (Homo sapiens)
Sequence (Q9UBN7 whole entry): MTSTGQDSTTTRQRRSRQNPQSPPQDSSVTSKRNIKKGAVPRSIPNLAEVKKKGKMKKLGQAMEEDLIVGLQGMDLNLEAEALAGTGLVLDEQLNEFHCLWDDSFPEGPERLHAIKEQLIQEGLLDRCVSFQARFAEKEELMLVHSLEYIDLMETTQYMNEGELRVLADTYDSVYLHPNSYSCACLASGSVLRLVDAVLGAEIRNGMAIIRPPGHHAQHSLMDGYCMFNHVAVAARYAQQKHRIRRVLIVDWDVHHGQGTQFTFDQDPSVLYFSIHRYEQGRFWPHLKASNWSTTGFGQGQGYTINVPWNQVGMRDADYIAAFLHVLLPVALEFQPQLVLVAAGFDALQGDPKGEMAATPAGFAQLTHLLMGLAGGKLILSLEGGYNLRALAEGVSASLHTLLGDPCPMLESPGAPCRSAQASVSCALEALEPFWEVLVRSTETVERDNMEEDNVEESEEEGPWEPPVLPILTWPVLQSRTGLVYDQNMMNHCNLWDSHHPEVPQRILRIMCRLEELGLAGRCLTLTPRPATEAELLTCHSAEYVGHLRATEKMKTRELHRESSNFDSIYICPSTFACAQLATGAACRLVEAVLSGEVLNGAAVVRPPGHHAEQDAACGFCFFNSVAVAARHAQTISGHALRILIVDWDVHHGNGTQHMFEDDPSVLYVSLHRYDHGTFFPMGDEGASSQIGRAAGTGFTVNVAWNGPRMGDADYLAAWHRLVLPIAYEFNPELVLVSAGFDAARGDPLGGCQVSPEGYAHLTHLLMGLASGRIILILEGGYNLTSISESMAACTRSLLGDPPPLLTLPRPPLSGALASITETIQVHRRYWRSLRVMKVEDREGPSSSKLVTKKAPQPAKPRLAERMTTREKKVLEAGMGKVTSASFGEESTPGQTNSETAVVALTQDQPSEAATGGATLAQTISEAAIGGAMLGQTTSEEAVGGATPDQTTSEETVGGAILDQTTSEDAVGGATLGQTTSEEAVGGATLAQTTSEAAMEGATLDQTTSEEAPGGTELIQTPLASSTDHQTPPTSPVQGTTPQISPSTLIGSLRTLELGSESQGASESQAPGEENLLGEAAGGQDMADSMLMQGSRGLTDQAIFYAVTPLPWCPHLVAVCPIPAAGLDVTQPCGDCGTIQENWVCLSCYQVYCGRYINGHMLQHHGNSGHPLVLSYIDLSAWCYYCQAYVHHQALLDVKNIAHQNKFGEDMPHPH
pIC50: −log10 of the molar value.
outcome measure: pIC50

smiles string	system under test	outcome measure	assay value
O=C(/C=C/c1ccc(CNCc2ccc3ccccc3n2)cc1)NO	Protein deacetylase HDAC6 (Homo sapiens)	pIC50	7.31
O=C(/C=C/c1ccc(CNCc2ccc3cccc(Cl)c3n2)cc1)NO	Protein deacetylase HDAC6 (Homo sapiens)	pIC50	7.44

====

Target: Histone deacetylase (HDAC1 and HDAC2) (Homo sapiens, UniProt Q13547+Q92769)
Experiment: Inhibition of HDAC1/2 in human HeLa cell nuclear extract using COLOR DE LYS as substrate pretreated for 5 mins followed by substrate addition measured after 30 mins by UV-absorption method
Format: cell-based
outcome measure: IC50

Below: 2 compounds and their reported IC50.
smiles string	outcome measure	assay value
O=C(/C=C/c1ccc(C(=O)N(Cc2ccc3ccccc3n2)c2ccc(Br)cc2)cc1)NO	IC50	> 1000 nM
COc1ccc(N(Cc2ccc3cccc(Cl)c3n2)C(=O)c2ccc(/C=C/C(=O)NO)cc2)cc1	IC50	> 1000 nM

So for CCCCCCN(Cc1cccc(/C=C/C(=O)NO)c1)Cc1ccc2cc(Br)ccc2n1 , the logged IC50 turned out to be > 1000 nM

So for O=C(/C=C/c1ccc(CN(Cc2ccccc2)Cc2ccc3cc(Br)ccc3n2)cc1)NO , the logged IC50 turned out to be > 1000 nM

So for O=C(/C=C/c1ccc(CN(Cc2ccccc2)Cc2ccc3ccccc3n2)cc1)NO , the logged IC50 turned out to be > 1000 nM

So for O=C(NO)c1ccc(CNCc2ccc3ccccc3n2)cc1 , the logged IC50 turned out to be > 1000 nM
